Here we gather IC50 data for Protein deacetylase HDAC6 (Homo sapiens) reported by several publications.
ASSAYED SYSTEM: Protein deacetylase HDAC6 (Homo sapiens)
Sequence (Q9UBN7 whole entry): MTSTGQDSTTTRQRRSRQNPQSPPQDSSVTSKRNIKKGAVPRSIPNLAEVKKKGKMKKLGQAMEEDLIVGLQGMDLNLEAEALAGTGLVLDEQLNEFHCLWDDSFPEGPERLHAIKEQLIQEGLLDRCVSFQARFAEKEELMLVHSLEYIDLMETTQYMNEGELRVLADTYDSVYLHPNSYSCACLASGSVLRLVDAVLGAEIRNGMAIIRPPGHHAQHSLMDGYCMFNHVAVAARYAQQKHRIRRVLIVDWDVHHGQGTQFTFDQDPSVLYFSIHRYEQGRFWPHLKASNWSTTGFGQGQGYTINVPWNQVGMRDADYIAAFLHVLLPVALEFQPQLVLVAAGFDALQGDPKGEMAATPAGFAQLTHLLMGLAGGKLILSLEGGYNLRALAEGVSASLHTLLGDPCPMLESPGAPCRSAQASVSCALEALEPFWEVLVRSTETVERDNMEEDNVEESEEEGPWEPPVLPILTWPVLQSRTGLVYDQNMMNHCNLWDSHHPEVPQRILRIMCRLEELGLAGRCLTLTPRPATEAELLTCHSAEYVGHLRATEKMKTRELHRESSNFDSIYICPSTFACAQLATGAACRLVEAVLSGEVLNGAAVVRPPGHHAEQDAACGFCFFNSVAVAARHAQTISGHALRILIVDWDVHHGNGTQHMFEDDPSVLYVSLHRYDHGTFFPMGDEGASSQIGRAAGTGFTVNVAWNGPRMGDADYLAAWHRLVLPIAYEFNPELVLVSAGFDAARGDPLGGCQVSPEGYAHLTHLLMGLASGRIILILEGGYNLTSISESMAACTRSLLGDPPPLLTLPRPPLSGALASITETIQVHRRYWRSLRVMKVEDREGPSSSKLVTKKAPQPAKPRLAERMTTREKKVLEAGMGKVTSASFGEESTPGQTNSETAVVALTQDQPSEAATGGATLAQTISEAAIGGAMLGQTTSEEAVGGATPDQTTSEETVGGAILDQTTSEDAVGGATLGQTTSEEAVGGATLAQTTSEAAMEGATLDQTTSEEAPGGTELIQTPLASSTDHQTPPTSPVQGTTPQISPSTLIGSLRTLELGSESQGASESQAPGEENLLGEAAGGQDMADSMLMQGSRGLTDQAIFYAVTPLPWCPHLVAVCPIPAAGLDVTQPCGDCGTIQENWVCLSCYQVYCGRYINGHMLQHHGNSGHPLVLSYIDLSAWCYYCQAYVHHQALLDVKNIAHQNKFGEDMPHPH
# strict inequality: IC50 < 0.03 µM yields True, everything else yields False

SMILES RECORD: Cc1c(NC(=O)NCCN2C(=O)S/C(=C\c3ccc([N+](=O)[O-])cc3)C2=O)c(=O)n(-c2ccccc2)n1C
GROUP: False
//
SMILES RECORD: CCOC(=O)c1ccc(C(=O)C(F)(F)F)o1
GROUP: False
//
SMILES RECORD: CN(C)c1ccc(NC(=O)NCCCCCCC(=O)NO)cc1
GROUP: False
//
SMILES RECORD: O=C(NO)c1ccc(CN2C(=O)CN(Cc3ccc(Cl)cc3)C2=O)cc1
GROUP: True
//
SMILES RECORD: N[C@H](Cc1ccc(Cl)cc1Cl)C(=O)N1Cc2ccccc2C1
GROUP: False
//
SMILES RECORD: Nc1ccccc1NC(=O)c1ccc(CCNc2nc(N)n3nc(-c4ccco4)nc3n2)cc1
GROUP: False
//
SMILES RECORD: O=C(CCCCCCn1cc(-c2ccc3ncnc(Nc4ccc(OCc5nccs5)c(Cl)c4)c3c2)nn1)NO
GROUP: True
//
SMILES RECORD: CC1(C)C(=O)N(c2ccc(C#N)c(C(F)(F)F)c2)C(=S)N1c1ccc(C(=O)NCCCCCCn2cccc(O)c2=O)c(F)c1
GROUP: False
//
SMILES RECORD: Nc1nc2ncc(CNc3ccc(C(=O)NCCCC(=O)NO)cc3)nc2c(=O)[nH]1
GROUP: False
//
SMILES RECORD: CCCNNC(=O)CCCCCCC(=O)Nc1ccccc1
GROUP: False
